Source of measurements: patent US11013780B2

- Test Protocol: Single dose PK, phase 1, healthy European men
- Assay type: in vivo, human
- Experimental Setup: male, human, plasma, subcutaneous, 2-hour INF 6 mg, read-out: Tmax (median)
Where a SMILES comes first, the peptide text is derived from it. [ ]: non-standard residue; d: D form. Arg(Me) = CNC(=N)NCCC[C@H](N)C(=O)O; Hyp = O=C(O)[C@@H]1C[C@@H](O)CN1; azaGly = NNC(=O)O
Measurement Type: Tmax (h)
Give the number; h is assumed, so skip it.

Query CC(=O)O.CNC(=N)NCCC[C@H](NC(=O)[C@H](CC(C)C)NC(=O)NNC(=O)[C@H](Cc1ccccc1)NC(=O)[C@@H](NC(=O)[C@H](CC(N)=O)NC(=O)[C@@H]1C[C@@H](O)CN1C(=O)[C@@H](Cc1ccc(O)cc1)NC(C)=O)[C@@H](C)O)C(=O)N[C@@H](Cc1c[nH]c2ccccc12)C(N)=O [API-MA] (Ac-[dY][Hyp]NTF[azaGly]L[Arg(Me)]W-NH2) yields Tmax of 2.25

* * *

- Test Protocol: Pharmacokinetics in monkeys after SC and IV administration
- Experimental Setup: monkey, in vivo; monkeys, SC 1 mg/kg; read-out: AUC(0-24)
- Source text: The PK of API-MA was studied in monkeys after SC and IV administration.
Where a SMILES comes first, the peptide text is derived from it. [ ]: non-standard residue; d: D form. Arg(Me) = CNC(=N)NCCC[C@H](N)C(=O)O; Hyp = O=C(O)[C@@H]1C[C@@H](O)CN1; azaGly = NNC(=O)O
Measurement Type: AUC(0-t) (ng·h/mL)
Give the number; ng·h/mL is assumed, so skip it.

Query CC(=O)O.CNC(=N)NCCC[C@H](NC(=O)[C@H](CC(C)C)NC(=O)NNC(=O)[C@H](Cc1ccccc1)NC(=O)[C@@H](NC(=O)[C@H](CC(N)=O)NC(=O)[C@@H]1C[C@@H](O)CN1C(=O)[C@@H](Cc1ccc(O)cc1)NC(C)=O)[C@@H](C)O)C(=O)N[C@@H](Cc1c[nH]c2ccccc12)C(N)=O [API-MA] (Ac-[dY][Hyp]NTF[azaGly]L[Arg(Me)]W-NH2) yields AUC(0-t) of 2790

* * *

- Test Protocol: Single dose PK, phase 1, healthy European men
- Assay type: in vivo, human
- Experimental Setup: male, human, urine and plasma, single SC 0.1 mg, geometric mean, read-out: CLr (renal clearance) (converted)
Where a SMILES comes first, the peptide text is derived from it. [ ]: non-standard residue; d: D form. Arg(Me) = CNC(=N)NCCC[C@H](N)C(=O)O; Hyp = O=C(O)[C@@H]1C[C@@H](O)CN1; azaGly = NNC(=O)O
Measurement Type: CL renal (mL/min)
Give the number; mL/min is assumed, so skip it.

Query CC(=O)O.CNC(=N)NCCC[C@H](NC(=O)[C@H](CC(C)C)NC(=O)NNC(=O)[C@H](Cc1ccccc1)NC(=O)[C@@H](NC(=O)[C@H](CC(N)=O)NC(=O)[C@@H]1C[C@@H](O)CN1C(=O)[C@@H](Cc1ccc(O)cc1)NC(C)=O)[C@@H](C)O)C(=O)N[C@@H](Cc1c[nH]c2ccccc12)C(N)=O [API-MA] (Ac-[dY][Hyp]NTF[azaGly]L[Arg(Me)]W-NH2) yields CL renal of 17500

* * *

- Test Protocol: 1-month depot PK, prostate cancer patients
- Format: in vivo, human
- Experimental Setup: male, human, plasma, sc, 24 mg/month, prostate cancer patients, 1-month depot SC 24 mg/month, geometric mean; read-out: AUC (0-tlqc) (converted)
Where a SMILES comes first, the peptide text is derived from it. [ ]: non-standard residue; d: D form. Arg(Me) = CNC(=N)NCCC[C@H](N)C(=O)O; Hyp = O=C(O)[C@@H]1C[C@@H](O)CN1; azaGly = NNC(=O)O
Measurement Type: AUC(0-t) (ng·h/mL)
Give the number; ng·h/mL is assumed, so skip it.

Query CC(=O)O.CNC(=N)NCCC[C@H](NC(=O)[C@H](CC(C)C)NC(=O)NNC(=O)[C@H](Cc1ccccc1)NC(=O)[C@@H](NC(=O)[C@H](CC(N)=O)NC(=O)[C@@H]1C[C@@H](O)CN1C(=O)[C@@H](Cc1ccc(O)cc1)NC(C)=O)[C@@H](C)O)C(=O)N[C@@H](Cc1c[nH]c2ccccc12)C(N)=O [API-MA] (Ac-[dY][Hyp]NTF[azaGly]L[Arg(Me)]W-NH2) yields AUC(0-t) of 239

* * *

- Test Protocol: Pharmacokinetics in monkeys after SC and IV administration
- Experimental Setup: monkey, in vivo, sc, 10 mg/kg
Where a SMILES comes first, the peptide text is derived from it. [ ]: non-standard residue; d: D form. Arg(Me) = CNC(=N)NCCC[C@H](N)C(=O)O; Hyp = O=C(O)[C@@H]1C[C@@H](O)CN1; azaGly = NNC(=O)O
Measurement Type: Tmax (min)
Give the number; min is assumed, so skip it.

Query CNC(=N)NCCC[C@H](NC(=O)[C@H](CC(C)C)NC(=O)NNC(=O)[C@H](Cc1ccccc1)NC(=O)[C@@H](NC(=O)[C@H](CC(N)=O)NC(=O)[C@@H]1C[C@@H](O)CN1C(=O)[C@@H](Cc1ccc(O)cc1)NC(C)=O)[C@@H](C)O)C(=O)N[C@@H](Cc1c[nH]c2ccccc12)C(N)=O [Compound 1] (Ac-[dY][Hyp]NTF[azaGly]L[Arg(Me)]W-NH2) yields Tmax of 24

* * *

- Test Protocol: Single dose PK, phase 1, healthy Japanese men
- Type: in vivo, human
- Experimental Setup: male, human, plasma, sc, 0.5 mg, single 2-hour SC INF 0.5 mg, mean, read-out: T½ (converted)
Where a SMILES comes first, the peptide text is derived from it. [ ]: non-standard residue; d: D form. Arg(Me) = CNC(=N)NCCC[C@H](N)C(=O)O; Hyp = O=C(O)[C@@H]1C[C@@H](O)CN1; azaGly = NNC(=O)O
Measurement Type: half-life (h)
Give the number; h is assumed, so skip it.

Query CC(=O)O.CNC(=N)NCCC[C@H](NC(=O)[C@H](CC(C)C)NC(=O)NNC(=O)[C@H](Cc1ccccc1)NC(=O)[C@@H](NC(=O)[C@H](CC(N)=O)NC(=O)[C@@H]1C[C@@H](O)CN1C(=O)[C@@H](Cc1ccc(O)cc1)NC(C)=O)[C@@H](C)O)C(=O)N[C@@H](Cc1c[nH]c2ccccc12)C(N)=O [API-MA] (Ac-[dY][Hyp]NTF[azaGly]L[Arg(Me)]W-NH2) yields half-life of 4.02

* * *

- Test Protocol: Single dose PK, phase 1, healthy European men
- Assay type: in vivo, human
- Experimental Setup: male, human, plasma, single SC 0.03 mg, geometric mean
Where a SMILES comes first, the peptide text is derived from it. [ ]: non-standard residue; d: D form. Arg(Me) = CNC(=N)NCCC[C@H](N)C(=O)O; Hyp = O=C(O)[C@@H]1C[C@@H](O)CN1; azaGly = NNC(=O)O
Measurement Type: Cmax (ng/mL)
Give the number; ng/mL is assumed, so skip it.

Query CC(=O)O.CNC(=N)NCCC[C@H](NC(=O)[C@H](CC(C)C)NC(=O)NNC(=O)[C@H](Cc1ccccc1)NC(=O)[C@@H](NC(=O)[C@H](CC(N)=O)NC(=O)[C@@H]1C[C@@H](O)CN1C(=O)[C@@H](Cc1ccc(O)cc1)NC(C)=O)[C@@H](C)O)C(=O)N[C@@H](Cc1c[nH]c2ccccc12)C(N)=O [API-MA] (Ac-[dY][Hyp]NTF[azaGly]L[Arg(Me)]W-NH2) yields Cmax of 0.34

* * *

- Test Protocol: Pharmacokinetics in rats after SC and IV administration
- Experimental Setup: rat, in vivo; rats, IV 0.01 mg/kg, PK linearity study; read-out: Elimination T1/2 (converted)
- Protocol: The PK of API-MA was studied in rats after SC and IV administration. The PK linearity of API-MA was also investigated in rats after IV administration. The plasma C5min and AUC(0-24) values increased dose-proportionally. […] The elimination T1/2 values were 0.4 hours at 0.01 and 0.1 mg/kg and 0.5 hours at 1 mg/kg. These findings indicate that the PK of API-FB was linear in rats after single IV administration over the dose range of 0.01 to 1 mg/kg. […]
Where a SMILES comes first, the peptide text is derived from it. [ ]: non-standard residue; d: D form. Arg(Me) = CNC(=N)NCCC[C@H](N)C(=O)O; Hyp = O=C(O)[C@@H]1C[C@@H](O)CN1; azaGly = NNC(=O)O
Measurement Type: half-life (min)
Give the number; min is assumed, so skip it.

Query CC(=O)O.CNC(=N)NCCC[C@H](NC(=O)[C@H](CC(C)C)NC(=O)NNC(=O)[C@H](Cc1ccccc1)NC(=O)[C@@H](NC(=O)[C@H](CC(N)=O)NC(=O)[C@@H]1C[C@@H](O)CN1C(=O)[C@@H](Cc1ccc(O)cc1)NC(C)=O)[C@@H](C)O)C(=O)N[C@@H](Cc1c[nH]c2ccccc12)C(N)=O [API-MA] (Ac-[dY][Hyp]NTF[azaGly]L[Arg(Me)]W-NH2) yields half-life of 24
